Molecular target: Human CARM1 (PRMT4) (Homo sapiens)
Construct: Flag-CARM1-His; made in house; host or cells: HEK 293F cells (BacMam baculovirus)
Sequence (Q86X55 1-585 isoform Q86X55-1): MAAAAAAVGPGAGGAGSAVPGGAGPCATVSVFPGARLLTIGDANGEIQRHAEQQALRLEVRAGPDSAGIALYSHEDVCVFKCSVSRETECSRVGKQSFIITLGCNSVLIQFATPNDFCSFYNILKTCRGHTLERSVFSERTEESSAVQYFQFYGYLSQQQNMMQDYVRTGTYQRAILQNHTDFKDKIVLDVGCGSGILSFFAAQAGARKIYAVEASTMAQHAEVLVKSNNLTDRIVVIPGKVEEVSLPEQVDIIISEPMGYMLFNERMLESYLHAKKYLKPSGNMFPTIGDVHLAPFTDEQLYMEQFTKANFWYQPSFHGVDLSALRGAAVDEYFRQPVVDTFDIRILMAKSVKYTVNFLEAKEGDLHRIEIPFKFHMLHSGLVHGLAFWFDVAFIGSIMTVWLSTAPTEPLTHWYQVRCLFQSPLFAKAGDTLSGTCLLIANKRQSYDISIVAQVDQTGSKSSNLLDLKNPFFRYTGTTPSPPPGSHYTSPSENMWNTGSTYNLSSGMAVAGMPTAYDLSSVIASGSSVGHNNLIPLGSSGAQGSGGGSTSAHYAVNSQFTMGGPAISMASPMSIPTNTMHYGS
Test: CARM1 Biochemical Assay (3H-SAM Flashplate, peptide substrate)
Settings: single experiment or average of multiple experiments
Catalogue of pIC50 readings, one per entry.
Field pIC50 (float): negative decimal logarithm of the concentration in molar.

{"compound": "CNCCN(C)Cc1c[nH]nc1-c1ccc(F)c(F)c1 [Compound 51]", "pIC50": 6.20}

Prompt line: Which pIC50 is reported for this compound? CC(C)c1ccc(-c2c[nH]nc2CN(C)CCN)cc1 [Compound 101]
Response line: 5.32

Prompt line: Which pIC50 is reported for this compound? CNCCN(C)Cc1c[nH]nc1-c1ccc(OC)cc1OC [Compound 55]
Response line: 5.38

Prompt line: Which pIC50 is reported for this compound? CN(CCN)Cc1c[nH]nc1-c1cccc(N(C)C)c1 [Compound 149]
Response line: 5.89

Prompt line: Which pIC50 is reported for this compound? CN(CCN)Cc1n[nH]cc1-c1ccc(OC(F)(F)F)cc1 [Compound 105]
Response line: 5.51

Prompt line: Which pIC50 is reported for this compound? CNCCN(C)Cc1c[nH]nc1-c1cccc(O)c1 [Compound 26]
Response line: 5.63

Prompt line: Which pIC50 is reported for this compound? COc1ccc(-c2n[nH]cc2CN(C)CCN)c(OC)c1 [Compound 87]
Response line: 5.36

Prompt line: Which pIC50 is reported for this compound? C=CC(=O)Nc1cccc(-c2[nH]ncc2CN(C)CCNC)c1 [Compound 258]
Response line: 5.77

Prompt line: Which pIC50 is reported for this compound? CN(CCN)Cc1c[nH]nc1-c1ccc(C2CC2)cc1 [Compound 116]
Response line: 5.91

Prompt line: Which pIC50 is reported for this compound? CC(O)c1ccc(-c2n[nH]cc2CN(C)CCN)cc1 (stereo not shown) [Compound 115]
Response line: 5.45

---

Molecular target: human PRMT6 (Homo sapiens)
Construct: Flag-PRMT6-His; made in house; host or cells: HEK 293F cells (BacMam baculovirus)
Sequence (Q96LA8 with tags, fused parts or gaps): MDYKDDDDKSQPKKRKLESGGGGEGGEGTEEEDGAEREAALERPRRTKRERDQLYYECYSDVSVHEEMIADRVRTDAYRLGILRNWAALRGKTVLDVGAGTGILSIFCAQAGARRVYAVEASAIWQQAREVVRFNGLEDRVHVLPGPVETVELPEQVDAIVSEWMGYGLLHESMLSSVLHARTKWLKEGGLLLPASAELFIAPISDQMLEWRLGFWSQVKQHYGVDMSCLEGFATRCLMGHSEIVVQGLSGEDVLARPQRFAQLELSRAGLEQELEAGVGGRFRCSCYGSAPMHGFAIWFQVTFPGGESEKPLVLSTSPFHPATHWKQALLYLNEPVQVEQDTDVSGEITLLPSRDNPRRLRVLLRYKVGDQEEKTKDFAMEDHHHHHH
Test: PRMT6 Biochemical Assay (3H-SAM Flashplate, peptide substrate)
Details: Biochemical IC50 PRMT6
pIC50: −log10 of the molar value.
measurement-kind: pIC50

{"compound": "CN(CCN)Cc1cn(CC2COC2)nc1-c1ccc(F)cc1", "measurement-kind": "pIC50", "result": "< 5.00"}

Prompt line: Which pIC50 is reported for this compound? CNCCN(C)Cc1c[nH]nc1-c1ccc(OCC2CCC2)cc1
Response line: > 7.00

Prompt line: Which pIC50 is reported for this compound? CNCCN(C)Cc1c[nH]nc1-c1ccc(OC2CC2)c(F)c1
Response line: > 7.00

Prompt line: Which pIC50 is reported for this compound? CC[C@H](C)Oc1ccc(-c2n[nH]cc2CN(C)CCNC)cc1
Response line: > 7.00

Prompt line: Which pIC50 is reported for this compound? COCCn1cc(CN(C)CCN(C)C)c(-c2ccc(F)cc2)n1
Response line: < 5.00

Prompt line: Which pIC50 is reported for this compound? CNCCN(C)Cc1c[nH]nc1-c1ccc(OCC2CC2)cc1
Response line: > 7.00

Prompt line: Which pIC50 is reported for this compound? CNCCN(C)Cc1c[nH]nc1-c1ccc(OCC2CCOC2)cc1 (stereo not drawn)
Response line: > 7.00

Prompt line: Which pIC50 is reported for this compound? CNCCN(C)Cc1c[nH]nc1-c1ccc(OC2CC2)cc1
Response line: > 7.00

Prompt line: Which pIC50 is reported for this compound? CNCCN(C)Cc1c[nH]nc1-c1ccc(OCC(C)C)cc1
Response line: > 7.00

These data points were gathered from patent US9776972B2.
